Source listed as PubChem BioAssay (EPA / NIEHS).

molecular target: Ratio of Nucleoli Translocation and Cytoplasm, AR (gene 367); experiment: UPITT_HCI_U2OS_AR_TIF2_Nucleoli_Cytoplasm_Ratio_Antagonist: University of Pittsburgh U2OS Androgen Receptor-Transcriptional Intermediary Factor 2 (AR-TIF2) Antagonism High Content Imaging Assay for Ratio of Nucleoli Translocation and Cytoplasm (AID 2283999);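 further: antagonists lower the DHT-driven ratio of nucleolar to cytoplasmic red signal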
Inconclusive results are not listed. The source made the active and inactive calls. How the source made its calls: active means hit-call score of the fitted dose curve at least 0.9, where 1 is the maximum; inconclusive means response in the unintended direction; inactive means score below 0.9.
Labels: TRUE (active), FALSE (inactive)

> print(dat)
                                   compound  group
1                            O=Cc1ccccc1C=O  FALSE
2                                 CCOCCOCCO  FALSE
3  CC(C)OC(=O)C(C)(C)Oc1ccc(C(=O)c2ccc(Cl)cc2)cc1  FALSE
4  CSc1ccc(Oc2ccc(S(N)(=O)=O)cc2CN(C)C)cc1C  FALSE
5  CCC(C)N(C)C(=O)c1cc2ccccc2c(-c2ccccc2Cl)n1 (stereo not drawn)  FALSE
6       C#CC(O)C(CC)CCCC (stereo not drawn)   TRUE
7                                NCCOCCOCCN  FALSE
8                  CCCCCCCCCC[N+](C)(C)[O-]  FALSE
